Target: human TLR7 (Homo sapiens, UniProt Q9NYK1)
Sequence (Q9NYK1 27-1049): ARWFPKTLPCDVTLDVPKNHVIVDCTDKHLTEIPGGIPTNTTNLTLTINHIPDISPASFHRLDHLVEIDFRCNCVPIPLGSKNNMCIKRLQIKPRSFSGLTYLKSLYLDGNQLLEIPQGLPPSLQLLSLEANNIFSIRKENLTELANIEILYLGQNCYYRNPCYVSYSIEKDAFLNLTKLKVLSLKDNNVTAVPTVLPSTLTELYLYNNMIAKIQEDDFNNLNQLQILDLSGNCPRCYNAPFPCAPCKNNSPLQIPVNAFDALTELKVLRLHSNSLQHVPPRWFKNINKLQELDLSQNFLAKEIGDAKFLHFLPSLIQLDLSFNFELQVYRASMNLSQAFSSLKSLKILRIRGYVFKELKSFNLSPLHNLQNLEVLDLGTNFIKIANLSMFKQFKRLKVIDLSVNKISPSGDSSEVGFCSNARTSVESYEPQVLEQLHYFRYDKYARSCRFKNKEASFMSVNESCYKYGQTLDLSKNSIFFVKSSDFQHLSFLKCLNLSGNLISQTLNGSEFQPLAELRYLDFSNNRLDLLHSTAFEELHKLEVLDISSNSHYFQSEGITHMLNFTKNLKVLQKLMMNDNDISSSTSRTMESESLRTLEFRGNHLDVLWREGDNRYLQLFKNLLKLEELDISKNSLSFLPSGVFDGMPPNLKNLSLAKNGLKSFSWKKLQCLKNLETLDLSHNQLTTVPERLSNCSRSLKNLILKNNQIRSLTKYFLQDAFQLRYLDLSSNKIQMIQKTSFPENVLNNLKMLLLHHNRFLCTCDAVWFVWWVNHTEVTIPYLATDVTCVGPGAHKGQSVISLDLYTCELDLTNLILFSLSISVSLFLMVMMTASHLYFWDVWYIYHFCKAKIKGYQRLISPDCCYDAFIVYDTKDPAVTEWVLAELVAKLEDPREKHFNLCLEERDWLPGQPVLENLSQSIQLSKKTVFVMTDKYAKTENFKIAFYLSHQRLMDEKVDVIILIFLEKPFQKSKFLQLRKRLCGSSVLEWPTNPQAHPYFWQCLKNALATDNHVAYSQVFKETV
Assay: TLR7 inhibition reporter assay (HEK-Blue cells, SEAP reporter, gardiquimod stimulation)
Details: HEK-Blue cells overexpressing human TLR7, gardiquimod 7.5 μM
measurement-kind: IC50

[in] # lookup: human TLR7 (Homo sapiens, UniProt Q9NYK1) IC50, key = CCC(C)NC(=O)CN1CCC(c2ccc3[nH]c(-c4ccc(OC)c(OC)c4)c(CC(F)(F)F)c3c2)CC1 (centres unmarked)
[out] 233 nM

[in] # lookup: human TLR7 (Homo sapiens, UniProt Q9NYK1) IC50, key = COc1ccc(-c2[nH]c3ccc(C4CCN(CC(=O)N5CCN(C)CC5)CC4)cc3c2C(C)C)cc1OC
[out] 68 nM

[in] # lookup: human TLR7 (Homo sapiens, UniProt Q9NYK1) IC50, key = COc1ccc(-c2[nH]c3ccc(C4CCN(C(=O)CNC5CCCC5O)CC4)cc3c2C(C)C)cc1OC (centres unmarked)
[out] 29 nM

[in] # lookup: human TLR7 (Homo sapiens, UniProt Q9NYK1) IC50, key = CCc1c(-c2ccc(OC)c(OC)c2)[nH]c2ccc(C3CCN(C(=O)NC(C)C)CC3)cc12
[out] 610 nM

[in] # lookup: human TLR7 (Homo sapiens, UniProt Q9NYK1) IC50, key = COc1ccc(-c2[nH]c3ccc(C4CCN(C(=O)CN5CCC[C@@H](C(=O)N6CCC(CCO)CC6)C5)CC4)cc3c2C(C)C)cc1OC
[out] 153 nM

[in] # lookup: human TLR7 (Homo sapiens, UniProt Q9NYK1) IC50, key = COc1ccc(-c2[nH]c3ccc(C4CCN(CC(=O)NCCCn5ccnc5)CC4)cc3c2CC(F)(F)F)cc1OC
[out] 13 nM

[in] # lookup: human TLR7 (Homo sapiens, UniProt Q9NYK1) IC50, key = COc1ccc(-c2[nH]c3ccc(C4CCN(C(=O)CN5CCC[C@H](C(=O)N6CC[C@H](O)C6)C5)CC4)cc3c2C(C)C)cc1OC
[out] 66 nM

[in] # lookup: human TLR7 (Homo sapiens, UniProt Q9NYK1) IC50, key = CCc1c(-c2ccc(OC)c(OC)c2)[nH]c2ccc(C3CCN(C(=O)CNCC(C)O)CC3)cc12 (centres unmarked)
[out] 71 nM

[in] # lookup: human TLR7 (Homo sapiens, UniProt Q9NYK1) IC50, key = CCc1c(-c2ccc(OC)c(OC)c2)[nH]c2ccc(C3CCN(C4CCN(Cc5ccc(C)s5)CC4)CC3)cc12
[out] 1020 nM

[in] # lookup: human TLR7 (Homo sapiens, UniProt Q9NYK1) IC50, key = COc1ccc(-c2[nH]c3ccc(C4CCN(C5CCN(CC6CC6)CC5)CC4)cc3c2C(C)C)cc1OC
[out] 379 nM

[in] # lookup: human TLR7 (Homo sapiens, UniProt Q9NYK1) IC50, key = CNCCN1CCC(c2ccc3[nH]c(-c4ccc(OC)c(OC)c4)c(CC(C)C)c3c2)CC1
[out] 1290 nM

[in] # lookup: human TLR7 (Homo sapiens, UniProt Q9NYK1) IC50, key = COc1ccc(-c2[nH]c3ccc(C4CCN(C(=O)CN5CCCC(CO)C5)CC4)cc3c2C(C)C)cc1OC (centres unmarked) [Example 249]
[out] 21 nM

[in] # lookup: human TLR7 (Homo sapiens, UniProt Q9NYK1) IC50, key = CCN(CC)C(=O)C1CCCN(CC(=O)N2CCC(c3ccc4[nH]c(-c5ccc(OC)c(OC)c5)c(C(C)C)c4c3)CC2)C1 (centres unmarked) [Example 224]
[out] 46 nM

[in] # lookup: human TLR7 (Homo sapiens, UniProt Q9NYK1) IC50, key = COc1ccc(-c2[nH]c3ccc(C4CCN(C(=O)CNC5CCC(C(C)(C)O)CC5)CC4)cc3c2C(C)C)cc1OC (centres unmarked)
[out] 26 nM
